target desc: human FPR1 (Homo sapiens)
Sequence (P21462 whole entry): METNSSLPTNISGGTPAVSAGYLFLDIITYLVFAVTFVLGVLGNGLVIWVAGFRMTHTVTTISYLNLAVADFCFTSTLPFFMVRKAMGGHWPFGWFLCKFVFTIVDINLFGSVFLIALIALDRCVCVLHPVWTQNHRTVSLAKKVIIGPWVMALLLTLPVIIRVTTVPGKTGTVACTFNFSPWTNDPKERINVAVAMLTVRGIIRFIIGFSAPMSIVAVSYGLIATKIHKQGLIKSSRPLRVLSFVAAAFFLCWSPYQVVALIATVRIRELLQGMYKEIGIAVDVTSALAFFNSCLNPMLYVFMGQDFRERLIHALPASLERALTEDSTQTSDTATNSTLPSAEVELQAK
test description: FPR1 cyclic adenosine monophosphate (cAMP) assay
conditions used: CHO cells overexpressing human FPR1; forskolin 10 μM; inhibition of cAMP production; HTRF; read-out: hFPR1 cAMP2 EC50
// pEC50 lookup, one value per entry
Hey, just a heads up that pEC50 is the negative log base 10 of the concentration in molar.

For orientation, consider the following solved cases.
COc1cc(F)c(-n2c(NC(=O)c3ccc(OC(F)F)cc3)nc(-c3ccc(Cl)cc3)c2C)c(F)c1 : 6.26
CCNC(=O)N1CCC(c2cn(-c3c(F)cc(OC)cc3F)c(NC(=O)c3ccc(OC(F)F)cc3)n2)CC1 : 6.27
COc1ccc(-n2cc(C(=O)NCCCO)nc2NC(=O)c2ccc(OC(F)F)cc2)cc1 : 6.68
COc1cc(F)c(-n2cc(-c3ccn[nH]3)nc2NC(=O)c2ccc(OC(F)F)cc2)c(F)c1 : 6.30
COc1cc(F)c(-n2cc(C3CCN(C(=O)CCO)CC3)nc2NC(=O)c2ccc(OC(F)F)cc2)c(F)c1 : 6.96
COc1ccc(-n2cc(-c3ccc4sccc4c3)nc2NC(=O)c2ccc(OC(F)F)cc2)cc1 : 6.85

Read off the recorded pEC50 for "CCS(=O)(=O)N1CCC(c2cn(-c3c(F)cc(OC)cc3F)c(NC(=O)c3ccc(OC(F)F)cc3)n2)CC1"
6.49

Please supply the value of reported pEC50 for the item "COc1cc(F)c(-n2cc(-c3ccc(Cl)c(Cl)c3)nc2NC(=O)c2ccc(OC(F)F)cc2)c(F)c1"
6.40

Supply reported pEC50 belonging to this molecule: "COc1cc(F)c(-n2cc(-c3cccc(C#N)c3)nc2NC(=O)c2ccc(OC(F)F)cc2)c(F)c1"
7.34

Dear colleague, please send me the reported pEC50 for "COc1ccc(-n2cc(C(F)(F)C(F)(F)F)nc2NC(=O)c2ccc(OC(F)F)cc2)cc1" when you can.
7.24

Find the measured pEC50 of "COc1cc(F)c(-n2cc(-c3ccnc(Cl)c3)nc2NC(=O)c2ccc(OC(F)F)cc2)c(F)c1" and report it.
6.92
